# target or test system: 17β-HSD10 (Homo sapiens, UniProt Q99714)
# Construct: Recombinant 17β-HSD10 was expressed and purified as previously described in Aitken et al; made in house
# Sequence (Q99714 1-261): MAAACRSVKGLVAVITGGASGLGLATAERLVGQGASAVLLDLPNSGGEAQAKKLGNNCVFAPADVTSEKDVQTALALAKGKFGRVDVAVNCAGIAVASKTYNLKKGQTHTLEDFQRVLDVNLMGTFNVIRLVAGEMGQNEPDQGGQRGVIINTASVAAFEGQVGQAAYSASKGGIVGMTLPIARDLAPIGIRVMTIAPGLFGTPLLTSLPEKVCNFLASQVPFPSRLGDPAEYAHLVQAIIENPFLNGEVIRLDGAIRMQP
# experimental protocol: (−)-CHANA fluorescence assay of cellular 17β-HSD10 activity
# Type: cell-based
# test parameters: Table 4, 17β-HSD10 overexpressing HEK293 cells, CHANA fluorescence assay; read-out: cellular 17β-HSD10 activity mean pEC50 (converted)
Decision: EC50 beneath 400 nM gives class 1; EC50 meeting or exceeding 400 nM gives class 0.

stdin: Does the reported EC50 of the following compound sit strictly below 400 nM? COc1cccc(-c2ccccc2C2CCCN2C(=O)c2sccc2C)c1 (centres unmarked) [ESC1002338]
stdout: class 0

stdin: Does the reported EC50 of the following compound sit strictly below 400 nM? O=C(c1sccc1Cl)N1CCCC1c1ccccc1-c1cc(O)cc(F)c1 (centres unmarked) [ESC1002801]
stdout: class 1

stdin: Does the reported EC50 of the following compound sit strictly below 400 nM? O=C(c1sccc1Cl)N1CCCC1c1ccccc1-c1ccc(F)c(O)c1 (centres unmarked) [ESC1002838]
stdout: class 1

stdin: Does the reported EC50 of the following compound sit strictly below 400 nM? "O=C(c1sccc1Cl)N1CCC[C@H]1c1ccccc1-c1cccc(O)c1"
stdout: class 1

stdin: Does the reported EC50 of the following compound sit strictly below 400 nM? "Cc1ccc(C(=O)N(CC(C)C)c2cccc(N(C)Cc3c[nH]cn3)c2)c(F)c1"
stdout: class 1

stdin: Does the reported EC50 of the following compound sit strictly below 400 nM? O=C(c1sccc1Cl)N1CCCC1c1ccccc1-c1ccc(F)c(O)c1 (centres unmarked) [ESC1002775]
stdout: class 0

stdin: Does the reported EC50 of the following compound sit strictly below 400 nM? "COc1ccc(C(=O)N(CC(C)C)c2cccc(N(C)Cc3c[nH]cn3)c2)c(F)c1"
stdout: class 0

stdin: Does the reported EC50 of the following compound sit strictly below 400 nM? "CC(C)CN(C(=O)c1ccccc1F)c1cccc(N(C)Cc2ccn[nH]2)c1"
stdout: class 0
